Items are presented alongside their recorded viability at 48 h, 100 ug/mL.
# ASSAY COMMENT: Cytotoxicity against Mycobacterium bovis Bacillus Calmette-Guerin infected mouse J774 macrophage assessed as cell viability at 100 ug/mL after 48 hrs by MTT assay
# Assay type: cell-based
# CONDITIONS USED: J774 macrophage cells infected with Mycobacterium bovis BCG, read-out: Activity
Your answer should be a plain number; it is taken to be in %.

Here's what some known entries look like.
{"COMPOUND STRUCTURE": "NCCCCCCCCCCN", "READOUT UNITS": "%", "OBSERVED": 42}
{"COMPOUND STRUCTURE": "NCCCCCN", "READOUT UNITS": "%", "OBSERVED": 98}
{"COMPOUND STRUCTURE": "NCCCCCCCCCCCN", "READOUT UNITS": "%", "OBSERVED": 40}
{"COMPOUND STRUCTURE": "NCCN", "READOUT UNITS": "%", "OBSERVED": 29}

**Q:** Tell me the measured viability at 48 h, 100 ug/mL of NCCCCCCCCCCCCN , please.
**A:** 38

**Q:** Name the recorded viability at 48 h, 100 ug/mL for NCCCCCCCN .
**A:** 70

**Q:** Need viability at 48 h, 100 ug/mL of CC[C@@H](CO)NCCN[C@@H](CC)CO , thanks.
**A:** 85

**Q:** Param item = NCCCCN ; retrieve measured viability at 48 h, 100 ug/mL.
**A:** 82

**Q:** Request the reported viability at 48 h, 100 ug/mL associated with NCCCCCCN
**A:** 76

**Q:** Return reported viability at 48 h, 100 ug/mL; argument: NCCCCCCCCCN
**A:** 71

**Q:** Fill in the blank: the reported viability at 48 h, 100 ug/mL of NCCCN is ____.
**A:** 89

**Q:** Consider the compound NCCCCCCCCN and give its measured viability at 48 h, 100 ug/mL.
**A:** 64
